Tested on: RIOK1
Conditions: concentration: 1 μM, replicates: in singlicate; n = 1;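 note: KINOMEscan kinase panel screen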
The compounds listed here are annotated with their %Inh.
Number in %, nothing else.

Solved entries:
> print(dat)
                                   compound  quantity.measured  value.measured
1  CN1CCN(CCCNc2nccc(-c3c(-c4ccc(F)cc4)nn4cc(C(F)(F)F)ccc34)n2)CC1 [GW621581]               %Inh              28
2  COc1ccc(-c2coc3ccc(-c4nnc(SCc5ccc(OC)c(C(F)(F)F)c5)o4)cc23)cc1               %Inh               0
3  Cn1cc(-c2ccc3c(c2)CCN3C(=O)Cc2cccc(F)c2)c2c(N)ncnc21 [GSK2603358]               %Inh               7

input: Which %Inh is listed for Cc1occc1-c1ncc(OC[C@@H](N)Cc2c[nH]c3ccccc23)cc1-c1ccc2[nH]nc(C)c2c1.O=C(O)C(F)(F)F [GSK682037] ?
output: 95.1

input: I have this compound here, Clc1ccc(-c2nn3ncccc3c2-c2ccnc(Nc3ccc4c(c3)OCCO4)n2)cc1 [GW829116] , and I need its recorded %Inh.
output: 0

input: %Inh lookup needed for c1ccc(Oc2ccc(Nc3ccnc4cc(-c5ccc(CNCCN6CCOCC6)o5)ccc34)cc2)nc1 [GW567145] , thanks.
output: 0

input: Any idea what its %Inh is? The compound is `CCc1ccc(-c2ccc3c(c2)-c2c(cnn2C)S(=O)(=O)N3C)cc1`
output: 0

input: What value of %Inh has been reported for the following compound? COc1ccc(CNC(=O)NC2CCN(c3ccnc(Nc4ccc(F)cc4)n3)CC2)cc1 [GSK1379788]
output: 28

input: # lookup: %Inh of O=C(Nc1ccccc1F)NC1CCN(c2ccnc(Nc3ccc(F)cc3)n2)CC1 [GSK1379800]
output: 58

input: Returns the measured %Inh for the input compound. Input: CC(C)c1nc(-c2cccc(NS(=O)(=O)c3c(F)cccc3F)c2F)c(-c2ccnc(Nc3ccc(N4CCOCC4)nc3)n2)s1 [GSK2008607]
output: 22

input: %Inh lookup needed for Nc1ncc(-c2cccnc2)c2scc(-c3ccc4c(c3)CCN4C(=O)Cc3ccccc3)c12 [GSK683281] , thanks.
output: 35

---

System: PIM2
Conditions: concentration: 1 μM, replicates: in singlicate; n = 1
quantity-measured: %Inh (%)
Give your result in % as a bare value.

input: // query %Inh value for entry `Fc1ccc(-c2ncn(C3CCNCC3)c2-c2ccnc(Oc3ccc(-c4ccccc4)cc3)n2)cc1`
output: 4

input: Tell me the measured %Inh of `COCCOCCOc1cc2ncc3c4ccc(C#N)cc4[nH]c3c2cc1OC` , please.
output: 94

input: Could you tell me which %Inh is on file for `COc1cccc(C2=C(Nc3ccc(Cl)c(C(=O)O)c3)C(=O)NC2=O)c1` ?
output: 0

input: Dear colleague, I am looking for the recorded %Inh of the following compound: `Cc1ccc(F)c(C(=O)Nc2cccc(-c3nn4ccccc4c3-c3ccnc(Nc4cccc(F)c4)n3)c2)c1F`
output: 0

input: What value of %Inh has been recorded for this entry: `Nc1ncnc2c1nc(-c1ccccc1)n2-c1ccccc1`
output: 0

input: Look up %Inh: `O=C(O)C(F)(F)F.O=C(O)C(F)(F)F.O=c1[nH]ccc2nc(N[C@@H]3CCCNC3)nc(Nc3ccc(S(=O)(=O)N4CCOCC4)cc3)c12`
output: 98.8

input: Give its %Inh value. Item: `O=C(Nc1n[nH]c2cc(-c3ccoc3)ccc12)C1CC1`
output: 0

input: Which %Inh reading was recorded for the compound Cl.Cl.NCC(NCc1ccc(-c2ccnc3[nH]ccc23)s1)c1ccccc1 (centres unmarked) ?
output: 0

input: Recorded %Inh of `C[C@@H](Oc1cc(-n2cnc3cc(-c4ccnc(NCCS(C)(=O)=O)c4)ccc32)sc1C(N)=O)c1ccccc1Cl` , please.
output: 0

input: Which %Inh reading was recorded for the compound `COc1cccc(-c2ccc3c(NC(=O)C4CC4)n[nH]c3n2)c1` ?
output: 0

input: Entry Cl.Cl.NCC(C(=O)Nc1cc(Br)c(-c2ccnc3[nH]ccc23)s1)c1ccccc1 (centres unmarked) has what %Inh?
output: 0

input: Consider the compound shown here: `Cc1cccc(Nc2nc(N[C@H]3CCNC3)ncc2C(N)=O)c1.Cl` What is its recorded %Inh?
output: 68

input: Look at this compound and give its reported %Inh. `CN(C)S(=O)(=O)c1cc(-c2ccc3nccc(-c4cccc(S(N)(=O)=O)c4)c3c2)cnc1N`
output: 0

input: Request the reported %Inh associated with `CCS(=O)(=O)c1ccc(OC)c(Nc2nccc(-c3c(-c4cccc(NC(=O)c5c(F)cccc5F)c4)nn4ncccc34)n2)c1`
output: 0

---

Reported %Inh values for a set of compounds
System: DAPK3
Details: concentration: 1 μM, replicates: in singlicate; n = 1
Write down the numeric answer in % and omit the unit.

These solved cases illustrate the format of a correct answer.
> print(dat)
                               input.smiles  quantity.measured  value.measured
1  COc1cc2c(cc1OCCN1CCNCC1)ncc1c3ccc(C#N)cc3[nH]c21               %Inh               4
2  COC(=O)Nc1nc2cc(Oc3ccc(NC(=O)Nc4cc(C(F)(F)F)ccc4F)cn3)ccc2[nH]1.Cl.Cl               %Inh               9

As a next step, examine the compound that follows.
input: # query: %Inh of entry `CC(=O)Nc1nc2cnc(Nc3cc(NC(=O)c4cccc(C5(C#N)CC5)c4Cl)ccc3C)nc2s1`
output: 0

---

%Inh by entry:
System: INSRR
Settings: concentration: 1 μM, replicates: in singlicate; n = 1
Dear colleague, please return just the value in %, with no unit written.

Use the examples below as a reference point.
> print(dat)
                                   molecule  quantity.measured  value.measured
1  c1ccc(Oc2ccc(Nc3ccnc4cc(-c5ccc(CNCCN6CCOCC6)o5)ccc34)cc2)nc1               %Inh               0
2  O=C(Nc1ccccc1F)NC1CCN(c2ccnc(Nc3ccc(F)cc3)n2)CC1               %Inh               0
3  C[C@@H]1CC[C@@H](C(=O)Nc2ccccc2)CN1c1cc(-c2ccc3c(N)n[nH]c3c2)nc(N)n1               %Inh               0

input: What %Inh value was documented for this molecule, `Fc1ccc(-c2ncn(C3CCNCC3)c2-c2ccnc(Oc3ccc(-c4ccccc4)cc3)n2)cc1` ?
output: 37

input: Requested read-out: %Inh. Entry: `O=C(O)C(F)(F)F.O=C(O)C(F)(F)F.O=c1[nH]ccc2nc(N[C@@H]3CCCNC3)nc(Nc3ccc(S(=O)(=O)N4CCOCC4)cc3)c12`
output: 99.2

input: Which %Inh is reported for this molecule? `Oc1cc(Nc2ccnc3cc(I)ccc23)ccc1F`
output: 0

input: What does the data say about its %Inh? Entry: `COc1ccc(Nc2nccc(NCCNC(=O)c3cc4ccccc4s3)n2)cc1`
output: 0

input: For Cc1ccc(C)c(NC(=O)NC2CCN(c3ccnc(Nc4ccc(F)cc4)n3)C2)c1 (stereo not drawn) , what is its reported %Inh?
output: 0

input: What value of %Inh has been reported for the following molecule? `Nc1ncc(-c2cccnc2)c2scc(-c3ccc4c(c3)CCN4C(=O)Cc3ccccc3)c12`
output: 0

input: Can you look up the measured %Inh of Cl.Cl.NCC(NCc1ccc(-c2ccnc3[nH]ccc23)s1)c1ccccc1 (stereo not drawn) for me?
output: 0

input: Consider the molecule COc1cc(Nc2nccc(N3CCC(NC(=O)Nc4cccc(C(C)=O)c4)C3)n2)cc(OC)c1OC (stereo not drawn) and give its measured %Inh.
output: 0

---

Tested on: BMPR1A
Settings: concentration: 1 μM, replicates: in singlicate; n = 1
Reported values of %Inh for individual entries
Reply with just the number (in %).

The cases that follow already have their %Inh on record.
> print(dat)
                                   compound  readout.unit  value.measured
1  Cc1ccc(C)c(NC(=O)NC2CCN(c3ccnc(Nc4ccc(F)cc4)n3)C2)c1 (stereo not shown)             %               0
2  O=C(Nc1cccc(Oc2ccc3nc(NC(=O)C4CC4)cn3n2)c1)c1ccccc1C(F)(F)F             %               0

input: What value of measured %Inh is listed for `O=C(Nc1n[nH]c2cc(-c3ccoc3)ccc12)C1CC1` ?
output: 11

input: May I ask what %Inh has been recorded for `Cc1cccc(Nc2nc(N[C@H]3CCNC3)ncc2C(N)=O)c1.Cl` ?
output: 0

input: Report %Inh for `CC(C)c1nc(-c2cccc(NS(=O)(=O)c3c(F)cccc3F)c2F)c(-c2ccnc(Nc3ccc(N4CCOCC4)nc3)n2)s1` please.
output: 53

input: Which %Inh reading was recorded for the compound `CC(=O)N1CCN(c2ccc(Nc3nccc(-c4sc(C(C)C)nc4-c4cccc(NS(=O)(=O)c5cccc(Cl)c5)c4)n3)cn2)CC1` ?
output: 0

input: // lookup %Inh for Cl.Cl.NCC(C(=O)Nc1cc(Br)c(-c2ccnc3[nH]ccc23)s1)c1ccccc1 (stereo not shown)
output: 78
